- System: Huh-7 cells containing the self-replicating, subgenomic HCV replicon
- method: HCV replicon assay (luciferase reporter)
- Type: cell-based
- experimental_conditions: Hepatitis C virus, Huh-7, 72 h
pEC50: −log10 of the molar value.
property: pEC50

The examples below pair each entry with its known result.
compound | pEC50
CCOc1nc(N)nc2c1ncn2[C@@H]1O[C@](F)(COP(=O)(N[C@@H](C)C(=O)OC2CCCCC2)Oc2ccccc2)[C@@H](O)[C@@]1(C)F (stereo partly drawn) | > 6.00
CC(C)OC(=O)C(C)N[P@@](=O)(OC[C@@]1(F)O[C@@H](n2ccc(=O)[nH]c2=O)[C@](C)(O)[C@@H]1O)Oc1ccccc1 (stereo partly drawn) | > 6.00

Query compound follows.
[in] # get_value(readout='pEC50', item= CC(=O)O[C@H]1[C@@](C)(O)[C@H](n2ccc(=O)[nH]c2=O)O[C@]1(F)COP(=O)(N[C@@H](C)C(=O)OC(C)C)Oc1ccc(Cl)cc1 (stereo partly drawn) )
[out] > 6.00
